target: Thrombin (Homo sapiens, UniProt P00734)
ASSAY METRIC: IC50

(Q) Which value of IC50 has been reported for "O=C(Nc1ccc(C(=O)Nc2ccc(Cl)cc2)c(O)c1)c1ccc(-c2nc3cc(Cl)c(Cl)cc3[nH]2)cc1" in the records?
(A) > 150 µM

---

target: Plasmin (Homo sapiens, UniProt P00747)
Sequence (P00747 581-810 limits assumed): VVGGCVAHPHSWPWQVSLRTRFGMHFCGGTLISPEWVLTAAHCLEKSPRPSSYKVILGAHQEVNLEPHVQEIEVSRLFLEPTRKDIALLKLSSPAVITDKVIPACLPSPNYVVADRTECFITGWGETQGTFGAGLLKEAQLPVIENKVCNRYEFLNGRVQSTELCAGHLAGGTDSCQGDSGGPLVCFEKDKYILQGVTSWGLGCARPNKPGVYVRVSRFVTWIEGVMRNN
Sequence (P00747 97-580 partner limits assumed): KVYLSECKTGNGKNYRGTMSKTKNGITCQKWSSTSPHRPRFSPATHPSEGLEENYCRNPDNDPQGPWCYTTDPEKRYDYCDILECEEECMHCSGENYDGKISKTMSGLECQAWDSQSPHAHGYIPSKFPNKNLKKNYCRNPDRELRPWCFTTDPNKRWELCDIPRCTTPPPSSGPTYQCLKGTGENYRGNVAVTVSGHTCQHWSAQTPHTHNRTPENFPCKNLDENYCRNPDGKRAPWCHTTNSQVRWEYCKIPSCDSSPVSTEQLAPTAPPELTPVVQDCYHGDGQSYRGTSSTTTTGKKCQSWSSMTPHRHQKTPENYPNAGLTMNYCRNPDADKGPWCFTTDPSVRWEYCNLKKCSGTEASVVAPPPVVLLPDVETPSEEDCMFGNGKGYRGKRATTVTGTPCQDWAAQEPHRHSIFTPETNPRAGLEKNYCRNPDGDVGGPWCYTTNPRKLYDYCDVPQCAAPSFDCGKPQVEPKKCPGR
ASSAY METRIC: IC50

(Q) Which value of IC50 has been reported for O=C(Nc1ccc(C(=O)Nc2ccc(Cl)cc2)c(O)c1)c1ccc(-c2nc3cc(Cl)c(Cl)cc3[nH]2)cc1 [Example 1] in the records?
(A) > 150 µM

---

biological target: tPA (2 chain) (Homo sapiens, UniProt P00750)
Sequence (P00750 311-562 limits assumed): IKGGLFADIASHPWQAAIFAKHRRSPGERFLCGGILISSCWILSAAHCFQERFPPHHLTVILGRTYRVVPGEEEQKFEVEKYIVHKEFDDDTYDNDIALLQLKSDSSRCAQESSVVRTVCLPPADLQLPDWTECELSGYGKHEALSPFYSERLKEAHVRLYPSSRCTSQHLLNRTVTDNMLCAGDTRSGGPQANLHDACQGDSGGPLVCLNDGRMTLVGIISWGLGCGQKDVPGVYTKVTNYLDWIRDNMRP
Sequence (P00750 36-310 partner limits assumed): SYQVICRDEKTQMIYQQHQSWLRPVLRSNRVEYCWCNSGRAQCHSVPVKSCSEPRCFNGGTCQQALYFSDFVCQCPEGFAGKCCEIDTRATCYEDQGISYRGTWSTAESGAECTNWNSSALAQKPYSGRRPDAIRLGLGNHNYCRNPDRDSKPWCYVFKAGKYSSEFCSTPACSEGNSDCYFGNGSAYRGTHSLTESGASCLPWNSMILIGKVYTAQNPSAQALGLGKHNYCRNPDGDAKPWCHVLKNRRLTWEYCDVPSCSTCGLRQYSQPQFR
pIC50: −log10 of the molar value.
ASSAY METRIC: pIC50

(Q) Which value of pIC50 has been reported for O=C(Nc1ccc(C(=O)Nc2ccc(Cl)cc2)c(O)c1)c1ccc(-c2nc3cc(Cl)c(Cl)cc3[nH]2)cc1 [Example 1] in the records?
(A) < 3.82
